target: Arginase-2, mitochondrial (Homo sapiens); test: in vitro enzyme assay to detect the production of urea directly proportional to the activity of Arginase II; type: functional; parameters: scale not given: in the data most compounds retested in dose-response had high values; details: 33.3 µM
Metric Name: Percent Effect (%)
Give bare numbers, in %.

For every listed record, write down its Percent Effect.
1. CN(c1ccc(F)c(F)c1)S(=O)(=O)c1cc(C(=O)O)cs1
2. Cc1noc(CCCC(=O)NC(C)c2ccccn2)n1 (configuration not stated)
3. COCCN1CCC(N(Cc2noc(C3CC3)n2)C(C)=O)C1 (configuration not stated)

1: -1.6; 2: 2.68; 3: -0.924

----------
Can you tell me Percent Effect for the items I'm about to list?
molecular target: Ubiquitin-activating enzyme e1, putative (Leishmania donovani (strain BPK282A1)); assay: Leishmania donovani Ubiquitin Activating Enzyme (LdE1); type: functional; design: scale not given: direction of the effect not stated beside the values; details: 30 µM
Measured potencies and affinities stand elsewhere.
Give bare numbers, in %.

Example entries and their recorded answers appear below.
O=C(c1cscn1)N1CCC2(CCN(Cc3cccs3)CC2)C1    8.11
O=C(c1cc(F)ccc1F)C1CCN(C(=O)c2cccnc2O)CC1    7.79
CS(=O)(=O)N1CC[C@H]2[C@H](C[C@@H](Cn3cncn3)N2CC2CC2)C1    10.4
Cc1cc(C)n(C2CCCN(C(=O)c3ccc(NC4CC4)nc3)C2)n1 (stereo unspecified)    7.79
Cn1ncc2c1CCCC2NCc1cnc(-c2ccccc2)nc1 (stereo unspecified)    13.5

For every listed record, write down its Percent Effect.
1. Cc1cc(N2CCCN(C(=O)Cc3csc(C)n3)CC2)ccn1
2. O=C(c1cnc(-c2cccs2)s1)N1CCCC(n2cccn2)C1 (stereo unspecified)
3. CS(=O)(=O)NCc1cn2c(n1)CN(C(=O)c1ccc[nH]1)CC2
4. Cc1nc(Nc2ncccn2)cc(C2CCCN2CC(C)C)n1 (stereo unspecified)

1: 5.41; 2: 13.5; 3: 10.7; 4: 5.33

For every listed record, write down its Percent Effect.
1. CC1CCN(C(CNC(=O)CCn2cccn2)c2cccs2)CC1 (stereo unspecified)
2. CCN1CC2(CCNCC2)COc2ccccc2S1(=O)=O

1: 13.3; 2: 6.67
